- ASSAYED SYSTEM: α1G T-type Ca2+ channels (Homo sapiens)
- Construct: expressed in transfected cells; host or cells: HEK293 cells stably expressing α1G and Kir2.1
- Sequence (O43497 whole entry): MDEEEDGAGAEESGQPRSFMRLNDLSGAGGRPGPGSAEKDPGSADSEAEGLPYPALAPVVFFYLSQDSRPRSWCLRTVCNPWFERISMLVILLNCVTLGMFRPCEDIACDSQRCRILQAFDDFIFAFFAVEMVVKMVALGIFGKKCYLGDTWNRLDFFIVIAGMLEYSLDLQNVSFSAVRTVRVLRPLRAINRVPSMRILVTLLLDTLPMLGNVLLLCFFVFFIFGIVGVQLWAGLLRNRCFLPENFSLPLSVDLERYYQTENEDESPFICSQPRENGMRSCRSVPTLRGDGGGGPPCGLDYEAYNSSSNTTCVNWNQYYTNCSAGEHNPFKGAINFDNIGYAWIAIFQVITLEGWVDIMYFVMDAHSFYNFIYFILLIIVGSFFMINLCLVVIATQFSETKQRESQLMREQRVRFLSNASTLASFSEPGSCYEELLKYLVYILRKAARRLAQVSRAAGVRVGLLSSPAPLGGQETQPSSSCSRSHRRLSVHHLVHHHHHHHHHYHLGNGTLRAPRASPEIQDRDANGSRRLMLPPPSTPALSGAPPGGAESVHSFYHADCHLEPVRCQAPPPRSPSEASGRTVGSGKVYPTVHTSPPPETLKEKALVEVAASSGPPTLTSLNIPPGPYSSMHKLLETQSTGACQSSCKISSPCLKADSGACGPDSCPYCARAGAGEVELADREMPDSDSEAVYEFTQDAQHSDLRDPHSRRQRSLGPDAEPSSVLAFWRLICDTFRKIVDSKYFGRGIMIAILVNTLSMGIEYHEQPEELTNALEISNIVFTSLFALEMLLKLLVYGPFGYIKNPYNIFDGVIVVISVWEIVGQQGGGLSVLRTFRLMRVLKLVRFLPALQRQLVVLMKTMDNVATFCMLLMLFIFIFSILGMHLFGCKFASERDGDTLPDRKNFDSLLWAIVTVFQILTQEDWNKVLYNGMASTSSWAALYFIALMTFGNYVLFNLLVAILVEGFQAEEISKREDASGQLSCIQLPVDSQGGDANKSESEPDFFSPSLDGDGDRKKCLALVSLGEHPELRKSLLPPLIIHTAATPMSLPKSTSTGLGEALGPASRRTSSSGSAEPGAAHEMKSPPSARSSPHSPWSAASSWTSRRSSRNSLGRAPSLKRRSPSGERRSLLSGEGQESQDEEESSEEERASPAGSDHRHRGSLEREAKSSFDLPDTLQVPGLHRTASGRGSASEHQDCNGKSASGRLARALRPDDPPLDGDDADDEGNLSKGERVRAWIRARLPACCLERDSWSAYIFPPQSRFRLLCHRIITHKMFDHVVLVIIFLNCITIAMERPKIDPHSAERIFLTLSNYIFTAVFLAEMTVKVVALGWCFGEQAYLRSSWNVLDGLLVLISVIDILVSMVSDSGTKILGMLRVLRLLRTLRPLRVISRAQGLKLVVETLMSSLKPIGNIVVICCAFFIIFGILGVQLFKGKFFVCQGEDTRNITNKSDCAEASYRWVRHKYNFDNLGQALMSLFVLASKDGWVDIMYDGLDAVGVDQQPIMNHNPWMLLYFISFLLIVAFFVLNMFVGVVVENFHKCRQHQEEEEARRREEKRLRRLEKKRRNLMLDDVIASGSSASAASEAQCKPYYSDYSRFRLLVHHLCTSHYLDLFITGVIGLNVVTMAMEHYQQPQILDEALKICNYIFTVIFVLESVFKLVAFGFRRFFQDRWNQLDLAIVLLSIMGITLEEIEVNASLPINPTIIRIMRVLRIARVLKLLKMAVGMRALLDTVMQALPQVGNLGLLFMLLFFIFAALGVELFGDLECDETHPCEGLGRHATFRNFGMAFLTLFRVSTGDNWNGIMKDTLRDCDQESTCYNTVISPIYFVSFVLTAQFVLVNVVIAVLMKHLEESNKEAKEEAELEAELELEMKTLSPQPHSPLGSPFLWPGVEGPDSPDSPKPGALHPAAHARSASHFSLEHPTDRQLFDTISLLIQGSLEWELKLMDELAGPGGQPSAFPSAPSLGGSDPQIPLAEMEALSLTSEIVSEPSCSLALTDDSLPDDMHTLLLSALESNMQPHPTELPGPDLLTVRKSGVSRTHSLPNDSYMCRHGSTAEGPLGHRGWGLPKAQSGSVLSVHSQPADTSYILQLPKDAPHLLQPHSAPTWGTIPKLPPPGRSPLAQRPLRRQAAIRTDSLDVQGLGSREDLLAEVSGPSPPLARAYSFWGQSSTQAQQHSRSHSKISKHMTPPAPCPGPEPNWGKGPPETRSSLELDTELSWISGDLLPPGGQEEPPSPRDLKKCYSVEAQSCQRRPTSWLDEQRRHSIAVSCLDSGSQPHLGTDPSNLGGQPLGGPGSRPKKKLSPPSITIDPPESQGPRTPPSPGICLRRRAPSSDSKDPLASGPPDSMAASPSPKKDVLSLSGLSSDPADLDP
- ASSAY COMMENT: Screening of activity against T-type calcium channel with FDSS6000 (fluorescence, KCl-induced [Ca2+]i increase)
- Assay type: cell-based
- EXPERIMENTAL SETUP: 10 μM; HEK293 cells expressing α1G and Kir2.1; NA: Not Active; read-out: Inhibitory effect (%) of T-type calcium channel, Inhibition (%)
The following compounds are listed with their measured inhibition at 10 µM values.
Quick note: give the figure in %, leave out the unit.

Cc1ccc(N2C(=O)c3ccc(C(=O)NCCCN4CCCCC4C)cc3C2=O)cc1 (centres unmarked)    11.7
O=C(NCCN1CCCC1)c1ccc2c(c1)C(=O)N(Cc1cccc(Cl)c1)C2=O    28.9
Cc1ccc(CN2C(=O)c3ccc(C(=O)NCCN4CCCCC4)cc3C2=O)cc1    30.9
CC1CCCCN1CCCNC(=O)c1ccc2c(c1)C(=O)N(Cc1ccc(C#N)cc1)C2=O (centres unmarked)    9.1
Cc1ccccc1CN1C(=O)c2ccc(C(=O)NCCN3CCCC3)cc2C1=O    15.7

Cc1ccc(CN2C(=O)c3ccc(C(=O)NCCCN4CCCCC4)cc3C2=O)cc1 on α1G T-type Ca2+ channels (Homo sapiens) gives inhibition at 10 µM = 40.1

Cc1cccc(N2C(=O)c3ccc(C(=O)NCCCN4CCCC4)cc3C2=O)c1 on α1G T-type Ca2+ channels (Homo sapiens) gives inhibition at 10 µM = 5.3

Cc1cccc(N2C(=O)c3ccc(C(=O)NCCN4CCCC4)cc3C2=O)c1 on α1G T-type Ca2+ channels (Homo sapiens) gives inhibition at 10 µM = 4.7
